# assay_info: Solubility measurement (DMSO solution precipitation method)
# Type: physicochemical
# particulars: aqueous buffer, kinetic from dmso stock, McIlvaine buffer pH 6.8, 24 h, read-out: solubility pH 6.8
Listing of entries alongside the reported solubility at 24 h.

# molecule, solubility at 24 h
records = [
    ("C[C@H](Oc1nc(-c2onc3c2CCC[C@@]32CCCc3sc(N)c(C#N)c32)nc2c1n(C)c(=O)n2C1CCOCC1)[C@@H]1CCCN1C [I-10]", "> 0.148 mg/mL"),
    ("C[C@H](Oc1nc(-c2noc3c2CCC[C@@]32CCCc3sc(N)c(C#N)c32)nc2c1n(C)c(=O)n2[C@H]1CO[C@@H](C)C1)[C@@H]1CCCN1C [II-5]", "0.107 mg/mL"),
    ("C[C@H](Oc1nc(-c2onc3c2CCC[C@@]32CCCc3sc(N)c(C#N)c32)nc2c1ncn2[C@@H]1CCOC1)[C@@H]1CCCN1C [I-38]", "> 0.139 mg/mL"),
    ("C[C@H](Oc1nc(-c2onc3c2CCC[C@@]32CCCc3sc(N)c(C#N)c32)nc2c1n(C)c(=O)n2[C@@H]1CCOC1)[C@@H]1[C@@H](F)CCN1C [I-5]", "0.002 mg/mL"),
    ("C[C@H](Oc1nc(-c2onc3c2CCC[C@@]32CCCc3sc(N)c(C#N)c32)nc2c1[nH]c(=O)n2[C@@H]1CCCOC1)[C@@H]1CCCN1C [I-13]", "> 0.131 mg/mL"),
    ("CO[C@@H]1C[C@@H]([C@H](C)Oc2nc(-c3onc4c3CCC[C@@]43CCCc4sc(N)c(C#N)c43)nc3c2n(C)c(=O)n3[C@@H]2CCOC2)N(C)C1 [I-3]", "0.077 mg/mL"),
    ("C[C@H](Oc1nc(-c2noc3c2CCC[C@@]32CCCc3sc(N)c(C#N)c32)nc2c1CCO[C@]21CCOC1)[C@@H]1CCCN1C [II-9b]", "> 0.137 mg/mL"),
    ("CO[C@@H]1C[C@@H]([C@H](C)Oc2nc(-c3onc4c3CCC[C@@]43CCCc4sc(N)c(C#N)c43)nc3c2CN(C2COC2)C[C@]32CCOC2)N(C)C1 [I-58]", "0.122 mg/mL"),
    ("C[C@H](Oc1nc(-c2onc3c2CCC[C@@]32CCCc3sc(N)c(C#N)c32)nc2c1CN(C1COC1)C[C@]21CCOC1)[C@@H]1CC[C@H](C)N1C [I-55]", "> 0.137 mg/mL"),
    ("CO[C@H]1CCN(C)[C@@H]1[C@H](C)Oc1nc(-c2noc3c2CCC[C@@]32CCCc3sc(N)c(C#N)c32)nc2c1n(C)c(=O)n2[C@@H]1CCOC1 [II-1]", "0.037 mg/mL"),
    ("C[C@H](Oc1nc(-c2onc3c2CCC[C@@]32CCCc3sc(N)c(C#N)c32)nc2c1[nH]c(=O)n2[C@@H]1CCOC1)[C@@H]1CCCN1C [I-8]", "> 0.139 mg/mL"),
    ("C[C@H](Oc1nc(-c2onc3c2CCC[C@@]32CCCc3sc(N)c(C#N)c32)nc2c1n(C)c(=O)n2C1COC1)[C@@H]1CCCN1C [I-24]", "> 0.14 mg/mL"),
]

Cited source for all entries: patent US20250019385A1
